Molecular target: Cytochrome P450 3A4 (Homo sapiens)
Sequence (P08684 whole entry): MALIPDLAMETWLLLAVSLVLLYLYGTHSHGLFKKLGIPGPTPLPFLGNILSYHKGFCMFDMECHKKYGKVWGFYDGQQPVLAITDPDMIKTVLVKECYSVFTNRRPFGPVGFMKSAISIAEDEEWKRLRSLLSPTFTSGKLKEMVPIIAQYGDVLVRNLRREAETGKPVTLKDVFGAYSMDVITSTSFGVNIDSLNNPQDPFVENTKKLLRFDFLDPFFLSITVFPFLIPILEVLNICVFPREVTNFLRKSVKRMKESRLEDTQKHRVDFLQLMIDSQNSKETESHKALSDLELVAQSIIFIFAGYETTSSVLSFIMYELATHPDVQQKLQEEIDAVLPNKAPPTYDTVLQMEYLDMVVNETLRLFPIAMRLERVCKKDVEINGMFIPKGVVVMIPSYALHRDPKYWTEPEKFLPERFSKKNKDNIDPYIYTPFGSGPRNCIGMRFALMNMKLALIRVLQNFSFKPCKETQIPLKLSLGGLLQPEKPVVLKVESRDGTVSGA
Assay: Inhibition of CYP3A4 using midazolam as substrate
Assay type: ADME
QUANTITY: IC50 (µM)
# output: bare number, implied unit µM

-- ask What IC50 appears in the records for this compound with Cytochrome P450 3A4 (Homo sapiens)? `O=C(c1ccccc1C(F)(F)F)N(CC1CCC1)[C@H]1CCNC1`
-- reply 12.2

---

Target: Voltage-gated inwardly rectifying potassium channel KCNH2 (Homo sapiens, UniProt Q12809)
Sequence (Q12809 whole entry): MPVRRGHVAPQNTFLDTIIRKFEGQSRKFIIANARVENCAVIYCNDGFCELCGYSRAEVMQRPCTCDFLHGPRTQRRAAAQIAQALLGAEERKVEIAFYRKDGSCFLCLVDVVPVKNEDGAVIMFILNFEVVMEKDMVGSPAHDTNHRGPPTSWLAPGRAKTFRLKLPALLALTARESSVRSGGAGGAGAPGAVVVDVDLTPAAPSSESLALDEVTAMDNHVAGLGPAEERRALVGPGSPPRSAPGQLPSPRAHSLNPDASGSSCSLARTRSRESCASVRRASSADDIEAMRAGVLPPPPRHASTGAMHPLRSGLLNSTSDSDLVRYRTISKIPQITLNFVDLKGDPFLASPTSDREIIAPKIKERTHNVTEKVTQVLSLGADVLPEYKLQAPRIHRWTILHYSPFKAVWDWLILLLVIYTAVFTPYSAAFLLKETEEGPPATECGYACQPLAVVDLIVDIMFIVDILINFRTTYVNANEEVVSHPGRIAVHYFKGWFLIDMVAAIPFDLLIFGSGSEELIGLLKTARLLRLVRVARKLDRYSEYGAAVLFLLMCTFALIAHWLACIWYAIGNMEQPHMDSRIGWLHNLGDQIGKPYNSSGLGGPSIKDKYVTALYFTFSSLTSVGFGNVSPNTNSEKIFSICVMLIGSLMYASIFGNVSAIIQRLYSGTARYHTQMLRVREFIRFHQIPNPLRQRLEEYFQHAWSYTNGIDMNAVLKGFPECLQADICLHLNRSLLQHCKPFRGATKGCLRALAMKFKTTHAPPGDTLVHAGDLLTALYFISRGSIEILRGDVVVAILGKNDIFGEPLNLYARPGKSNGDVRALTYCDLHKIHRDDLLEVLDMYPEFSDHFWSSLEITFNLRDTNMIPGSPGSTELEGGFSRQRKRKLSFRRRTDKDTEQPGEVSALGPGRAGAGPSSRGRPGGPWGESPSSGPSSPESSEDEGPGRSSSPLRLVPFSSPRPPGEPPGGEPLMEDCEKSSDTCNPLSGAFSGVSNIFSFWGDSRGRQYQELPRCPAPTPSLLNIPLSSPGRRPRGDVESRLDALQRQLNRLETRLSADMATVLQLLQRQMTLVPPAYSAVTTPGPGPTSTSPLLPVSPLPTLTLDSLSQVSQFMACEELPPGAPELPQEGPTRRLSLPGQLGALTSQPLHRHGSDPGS
pIC50: −log10 of the molar value.
QUANTITY: pIC50

Example cases with answers are listed next.
# CHEM_SMILES, ENDPOINT_VALUE
rows = [
    ("CCOc1ccccc1C(=O)N(CC1CCC1)[C@H]1CCNC1", "< 4.77"),
    ("O=C(c1ccccc1Oc1ccccc1)N(CC1CCC1)[C@H]1CCNC1", 6.12),
    ("O=C(c1ccccc1C(F)(F)F)N(CC1CC1)[C@H]1CCNC1", "< 4.70"),
    ("CC(C)N(C(=O)c1ccccc1C(F)(F)F)[C@H]1CCNC1", "< 4.70"),
    ("CC(C)c1ccccc1C(=O)N(CC1CCCC1)[C@H]1CCNC1", 5.63),
]

-- ask What pIC50 appears in the records for this compound with Voltage-gated inwardly rectifying potassium channel KCNH2 (Homo sapiens, UniProt Q12809)? `CC(C)c1ccccc1C(=O)N(CC1CCC1)[C@H]1CCNC1`
-- reply < 4.74

-- ask What pIC50 appears in the records for this compound with Voltage-gated inwardly rectifying potassium channel KCNH2 (Homo sapiens, UniProt Q12809)? `CN(C(=O)c1ccccc1Oc1ccccc1)[C@H]1CCNC1`
-- reply 5.04

-- ask What pIC50 appears in the records for this compound with Voltage-gated inwardly rectifying potassium channel KCNH2 (Homo sapiens, UniProt Q12809)? `CSc1ccccc1C(=O)N(c1ccccc1)[C@H]1CCNC1`
-- reply < 4.70

-- ask What pIC50 appears in the records for this compound with Voltage-gated inwardly rectifying potassium channel KCNH2 (Homo sapiens, UniProt Q12809)? `O=C(c1ccccc1C(F)(F)F)N(C1CCC1)[C@H]1CCNC1`
-- reply < 5.00

-- ask What pIC50 appears in the records for this compound with Voltage-gated inwardly rectifying potassium channel KCNH2 (Homo sapiens, UniProt Q12809)? `CCN(C(=O)c1ccccc1Oc1ccccc1)[C@H]1CCNC1`
-- reply 5.30

-- ask What pIC50 appears in the records for this compound with Voltage-gated inwardly rectifying potassium channel KCNH2 (Homo sapiens, UniProt Q12809)? `O=C(c1ccccc1C(F)(F)F)N(c1ccccc1)[C@H]1CCNC1`
-- reply < 4.70

The measured values listed here are drawn from ChEMBL document CHEMBL1153484.
